Test system: Escherichia coli TOP10;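 further: peptides expressed intracellularly from a pBAD plasmid library in pooled LB shake-flask culture, induced with 0.3% L-arabinose, DNA abundance read by NGS, three biological replicates, DESeq2 with apeglm shrinkage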
test_name: shrunken log2 fold change of peptide-encoding DNA abundance (4.5 h post-induction vs induction); higher = less antimicrobial activity (less host growth inhibition)
stated_conditions: time post-induction: 4.5 h; library: site-saturation at positions 5, 18, 19, 20
Parameter threshold = 0.04. Response is Yes when shrunken log2 fold change meets or exceeds it, else No.

Recorded results for 10 sequences are shown here.
{"columns": ["chain_sequence", "label"],
 "data": [
  ["RRIRGRPPRLPRPRPRPGFNPRP", "Yes"],
  ["RRIRHRPPRLPRPRPRPTKKPRP", "No"],
  ["RRIRRRPPRLPRPRPRPEHSPRP", "Yes"],
  ["RRIRTRPPRLPRPRPRPVQPPRP", "Yes"],
  ["RRIRQRPPRLPRPRPRPPAGPRP", "Yes"],
  ["RRIRERPPRLPRPRPRPSVIPRP", "No"],
  ["RRIRIRPPRLPRPRPRPMHAPRP", "Yes"],
  ["RRIRIRPPRLPRPRPRPLIVPRP", "No"],
  ["RRIRSRPPRLPRPRPRPHRWPRP", "Yes"],
  ["RRIRYRPPRLPRPRPRPICGPRP", "No"]
]}

INPUT: Please tell me: is the sequence RRIRSRPPRLPRPRPRPNGYPRP at or over 0.04 in terms of shrunken log2 fold change?
OUTPUT: No

INPUT: Determine whether measured shrunken log2 fold change meets or exceeds 0.04 for RRIRFRPPRLPRPRPRPASWPRP
OUTPUT: No

INPUT: hey, is shrunken log2 fold change for this one >= 0.04? RRIRGRPPRLPRPRPRPRYFPRP
OUTPUT: No

INPUT: Dear colleague, could you confirm whether RRIRQRPPRLPRPRPRPKSIPRP has shrunken log2 fold change at or above 0.04?
OUTPUT: No

INPUT: Please tell me: is the sequence RRIRHRPPRLPRPRPRPLPMPRP at or over 0.04 in terms of shrunken log2 fold change?
OUTPUT: No

FYI, the data here is from the supplement of paper PMC9112550.
